All figures here come from ChEMBL document CHEMBL1201862.

# experimental-system: Zinc finger protein mex-5 (Caenorhabditis elegans)
# Sequence (Q9XUB2 whole entry): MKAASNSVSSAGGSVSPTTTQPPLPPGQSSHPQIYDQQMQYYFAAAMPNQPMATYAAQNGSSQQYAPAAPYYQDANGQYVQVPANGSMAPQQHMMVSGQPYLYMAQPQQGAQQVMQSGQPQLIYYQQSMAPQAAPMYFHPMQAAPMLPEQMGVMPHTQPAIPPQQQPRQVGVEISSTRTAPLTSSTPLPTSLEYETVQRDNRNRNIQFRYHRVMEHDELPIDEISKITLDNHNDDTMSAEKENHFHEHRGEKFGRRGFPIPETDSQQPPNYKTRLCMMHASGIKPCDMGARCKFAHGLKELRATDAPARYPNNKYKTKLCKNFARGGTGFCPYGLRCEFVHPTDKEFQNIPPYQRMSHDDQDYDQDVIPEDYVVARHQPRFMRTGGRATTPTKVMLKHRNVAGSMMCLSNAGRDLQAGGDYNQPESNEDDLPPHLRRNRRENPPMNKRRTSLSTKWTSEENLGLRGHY
# measurement-description: potency of MEX-5 RNA-binding blockers – biochemical, C. elegans, fluorescence polarization, dose response (AID 1960)
The source made the active and inactive calls.

compound	EC50
O=C(NCC1CCCO1)c1ccc(CS(=O)(=O)Cc2ccc(F)cc2)o1 (stereo not given)	> 300 µM (not active)
O=[N+]([O-])c1c(O)nc(/C=C\c2ccc(O)c(O)c2)nc1O	179 µM (active)
COc1ccc(OC)c(S(=O)(=O)NC2CCN(Cc3ccccc3)CC2)c1	> 300 µM (not active)
Cc1cc(/C=N/Nc2ccc([N+](=O)[O-])cn2)c(C)n1-c1ccc(C(=O)O)cc1	111 µM (active)
C=CCn1cc(C=C2C(=O)NC(=O)NC2=O)c2ccccc21	112 µM (inconclusive)

---

# experimental-system: Mu-type opioid receptor (Homo sapiens, UniProt P35372);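 also: U2OS cells expressing OPRM1 and beta-arrestin as split beta-galactosidase partners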
# Sequence (P35372 whole entry): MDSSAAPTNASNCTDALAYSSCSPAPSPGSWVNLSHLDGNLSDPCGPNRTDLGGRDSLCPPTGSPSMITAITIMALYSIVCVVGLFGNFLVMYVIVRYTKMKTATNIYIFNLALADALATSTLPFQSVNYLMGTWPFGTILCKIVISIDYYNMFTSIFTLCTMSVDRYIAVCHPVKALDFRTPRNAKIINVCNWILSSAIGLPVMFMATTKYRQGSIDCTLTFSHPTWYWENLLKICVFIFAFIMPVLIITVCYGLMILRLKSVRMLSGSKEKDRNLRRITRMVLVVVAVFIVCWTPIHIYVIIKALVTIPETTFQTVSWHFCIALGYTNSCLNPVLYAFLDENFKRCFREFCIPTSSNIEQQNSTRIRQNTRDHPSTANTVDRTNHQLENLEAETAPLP
# measurement-description: Counterscreen for agonists of heterodimerization of the mu 1 (OPRM1) and delta 1 (OPRD1) opioid receptors: Luminescence-based cell-based high throughput dose response assay to identify agonists of OPRM1 homodimerization.
# Type: functional
Active and inactive are the calls of the source.

molecule	EC50
CN(C)C(CNC(=O)c1ccc(Br)cc1)c1ccco1 (stereo unspecified)	> 92.5 µM (inactive)
COC(=O)C1=C(C)N(CCCC(=O)O)C(=O)NC1c1ccccc1OS(=O)(=O)c1ccccc1[N+](=O)[O-] (stereo unspecified)	> 92.5 µM (inactive)
COC(=O)C1=C(C)N(CCCC(=O)O)C(=O)NC1c1ccccc1OS(=O)(=O)c1ccc([N+](=O)[O-])cc1 (stereo unspecified)	> 92.4 µM (inactive)
O=C(c1sc2ccccc2c1Cl)N(Cc1ccco1)C1CCS(=O)(=O)C1 (stereo unspecified)	> 92.5 µM (inactive)
COc1ccc(C(CNc2ncnc3sc(C)c(C)c23)N(C)C)cc1 (stereo unspecified)	> 92.4 µM (inactive)
Cc1cccc(NC(=S)NC(=O)CCc2ccccc2)c1	> 92.5 µM (inactive)

---

# experimental-system: Ras and Rab interactor 1/Tyrosine-protein kinase ABL1 (Homo sapiens, UniProt P00519+Q13671);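 also: biochemical TR-FRET dose-response test measuring inhibition of binding between Rin1 and Abl proteins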
# Sequence (P00519 whole entry): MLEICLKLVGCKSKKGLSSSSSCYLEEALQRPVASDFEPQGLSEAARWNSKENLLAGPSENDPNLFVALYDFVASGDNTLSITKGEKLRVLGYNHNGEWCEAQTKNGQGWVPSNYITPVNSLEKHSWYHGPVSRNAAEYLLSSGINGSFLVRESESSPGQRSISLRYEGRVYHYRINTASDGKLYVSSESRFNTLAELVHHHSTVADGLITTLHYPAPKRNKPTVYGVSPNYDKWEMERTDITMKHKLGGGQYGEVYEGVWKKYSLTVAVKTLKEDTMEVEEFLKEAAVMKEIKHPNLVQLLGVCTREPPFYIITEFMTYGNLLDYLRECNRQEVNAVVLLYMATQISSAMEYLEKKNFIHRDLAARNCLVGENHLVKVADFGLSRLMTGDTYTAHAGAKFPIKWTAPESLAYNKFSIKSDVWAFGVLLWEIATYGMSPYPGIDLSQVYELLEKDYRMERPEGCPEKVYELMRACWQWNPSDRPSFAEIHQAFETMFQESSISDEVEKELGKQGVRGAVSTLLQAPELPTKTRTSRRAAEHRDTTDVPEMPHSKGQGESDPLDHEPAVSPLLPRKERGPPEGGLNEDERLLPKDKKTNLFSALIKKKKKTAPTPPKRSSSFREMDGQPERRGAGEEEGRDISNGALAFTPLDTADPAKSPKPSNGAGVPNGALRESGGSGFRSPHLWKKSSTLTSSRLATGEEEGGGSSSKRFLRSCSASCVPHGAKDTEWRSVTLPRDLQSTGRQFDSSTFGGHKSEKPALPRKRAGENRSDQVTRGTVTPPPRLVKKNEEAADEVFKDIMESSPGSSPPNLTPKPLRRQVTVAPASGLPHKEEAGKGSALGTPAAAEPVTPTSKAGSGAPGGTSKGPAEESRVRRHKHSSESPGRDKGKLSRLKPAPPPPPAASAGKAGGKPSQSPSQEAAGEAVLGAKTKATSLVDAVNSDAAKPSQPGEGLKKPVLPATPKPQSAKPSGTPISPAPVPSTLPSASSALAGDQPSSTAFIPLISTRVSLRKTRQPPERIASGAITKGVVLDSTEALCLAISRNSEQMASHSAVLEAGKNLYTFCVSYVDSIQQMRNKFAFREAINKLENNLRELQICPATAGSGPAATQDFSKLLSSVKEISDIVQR
# Sequence (Q13671 whole entry): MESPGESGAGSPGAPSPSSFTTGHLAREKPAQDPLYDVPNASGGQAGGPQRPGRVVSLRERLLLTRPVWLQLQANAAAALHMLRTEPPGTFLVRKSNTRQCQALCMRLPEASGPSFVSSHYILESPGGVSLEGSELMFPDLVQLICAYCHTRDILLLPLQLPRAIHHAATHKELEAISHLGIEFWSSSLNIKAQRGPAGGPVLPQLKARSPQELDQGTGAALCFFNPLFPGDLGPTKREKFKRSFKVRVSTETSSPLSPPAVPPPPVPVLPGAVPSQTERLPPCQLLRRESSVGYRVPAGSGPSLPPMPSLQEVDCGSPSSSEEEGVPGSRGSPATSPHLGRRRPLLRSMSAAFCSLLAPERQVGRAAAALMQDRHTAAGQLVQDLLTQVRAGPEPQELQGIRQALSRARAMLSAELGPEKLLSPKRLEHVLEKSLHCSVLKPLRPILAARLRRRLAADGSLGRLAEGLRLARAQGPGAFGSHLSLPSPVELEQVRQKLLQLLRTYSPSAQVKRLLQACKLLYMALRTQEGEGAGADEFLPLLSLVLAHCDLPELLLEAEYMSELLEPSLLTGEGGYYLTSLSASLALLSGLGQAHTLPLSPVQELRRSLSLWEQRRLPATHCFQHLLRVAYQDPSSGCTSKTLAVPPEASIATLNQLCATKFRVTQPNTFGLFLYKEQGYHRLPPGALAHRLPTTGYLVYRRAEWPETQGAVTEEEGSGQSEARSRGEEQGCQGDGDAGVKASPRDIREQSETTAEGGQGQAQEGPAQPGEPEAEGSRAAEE
# Format: functional
The source made the active and inactive calls.
reported-metric: IC50

molecule	result
Cc1ccc(-n2c(SCc3cc(=O)n4ccsc4n3)nnc2-c2cccnc2)c(C)c1	19.6 µM (inactive)
Oc1nc2ccccc2n1C1CCN(C(c2nnnn2C2CCCC2)C2CC2)CC1 (stereo unspecified)	17.3 µM (inactive)
CC(=O)c1cccc(-c2ccnc3c2CC(C(=O)NCc2ccc(N4CCN(C)CC4)cc2)O3)c1 (stereo unspecified)	29.9 µM (inactive)
CC12CCC(=O)N1C(C(=O)N1CCN(S(=O)(=O)c3ccc(Br)cc3Cl)CC1)CS2 (stereo unspecified)	17 µM (inactive)
COc1cc(/C=N/NC(=O)CSc2ccccn2)ccc1OC(C)C	19.1 µM (inactive)
COc1ccc(CC(=O)Oc2ccc(C)cc2Br)cc1OC	6.87 µM (active)

---

# measurement-description: fluconazole-exposed Candida albicans growth modulators – fluorescence, retest, confirmation (AID 2467)
# Assay type: functional, cell-based
The source made the active and inactive calls.
Listed here: items and their measured EC50.

molecule	EC50
CCCCCC1CCC(c2nnc(S)n2C)CC1 (stereo not drawn)	> 38 µM (not active)
Cc1cccc(Cc2nnc(CCC(=O)N3CCCCC3c3nccs3)o2)c1 (stereo not drawn)	> 38 µM (not active)
Cc1ccc(-c2c[n+](CC(=O)N3c4ccccc4Sc4ccccc43)c3n2CCC3)cc1	2.77 µM (active)
CC(=O)Oc1c(-c2ccc(Br)o2)oc2ccccc2c1=O	1.36 µM (active)
O=c1cc(-c2ccccc2)c2ccc(O)cc2o1	2.12 µM (active)
CN(C)CCCNC(=O)c1ccc(-c2nc(-c3ccc(Cl)cc3)cs2)cc1	3.33 µM (active)
CCOc1ccccc1NC(=O)c1cc(S(=O)(=O)N2CCC3(CC2)OCCO3)ccc1F	> 38 µM (not active)
CCCn1c(CC)nc([N+](=O)[O-])c1Sc1ccc(F)cc1	> 38 µM (not active)

---

# experimental-system: Protein skinhead-1 (Caenorhabditis elegans)
# Sequence (P34707 whole entry): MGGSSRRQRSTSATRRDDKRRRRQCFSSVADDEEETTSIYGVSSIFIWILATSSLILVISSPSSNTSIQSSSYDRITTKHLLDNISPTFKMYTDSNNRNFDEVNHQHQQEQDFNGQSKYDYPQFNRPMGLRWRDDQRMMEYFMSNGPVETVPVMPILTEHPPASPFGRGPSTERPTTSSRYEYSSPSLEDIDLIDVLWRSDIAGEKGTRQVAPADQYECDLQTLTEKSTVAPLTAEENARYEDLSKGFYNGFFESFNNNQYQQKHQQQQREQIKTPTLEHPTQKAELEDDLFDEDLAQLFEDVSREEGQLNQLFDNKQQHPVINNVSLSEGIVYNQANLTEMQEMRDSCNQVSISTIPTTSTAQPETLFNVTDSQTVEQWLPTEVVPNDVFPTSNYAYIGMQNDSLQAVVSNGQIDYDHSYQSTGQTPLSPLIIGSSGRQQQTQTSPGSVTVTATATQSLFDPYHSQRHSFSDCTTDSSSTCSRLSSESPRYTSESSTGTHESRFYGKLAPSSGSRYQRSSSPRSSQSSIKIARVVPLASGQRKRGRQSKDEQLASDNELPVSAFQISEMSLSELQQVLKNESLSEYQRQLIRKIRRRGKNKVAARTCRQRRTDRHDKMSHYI
# Format: functional
The source made the active and inactive calls.
Outcomes: active, inactive

compound	experimental-system	group-label
COc1ccc(C2C(C(=O)OC(C)C)=C(C)N=c3s/c(=C\c4cccs4)c(=O)n32)cc1 (stereo not drawn)	Protein skinhead-1 (Caenorhabditis elegans)	inactive
Fc1cccc(-c2csc(-c3ccno3)n2)c1	Protein skinhead-1 (Caenorhabditis elegans)	inactive
CCc1cccc(C)c1N=C(S)NCc1ccc2c(c1)cc(C)n2C	Protein skinhead-1 (Caenorhabditis elegans)	inactive
Cc1ccc(NC(=S)c2nc3ccccc3s2)cc1	Protein skinhead-1 (Caenorhabditis elegans)	inactive
Cc1nc(NC(=O)C2CC3CCCC(C2)C3=O)sc1C (stereo not drawn)	Protein skinhead-1 (Caenorhabditis elegans)	inactive
CC1(Cc2ccc(OC(F)(F)F)cc2)C(=O)Nc2ccc(OC(F)(F)F)cc21 (stereo not drawn)	Protein skinhead-1 (Caenorhabditis elegans)	active
CCCC(=O)N(CCN1CCOCC1)c1nc2c(OCC)cccc2s1	Protein skinhead-1 (Caenorhabditis elegans)	inactive
c1ccc(-c2cnc(-c3ccccc3)nn2)cc1	Protein skinhead-1 (Caenorhabditis elegans)	inactive
Cc1ccc(NC(=O)COC(=O)C2(C)CC2(Cl)Cl)cc1S(=O)(=O)N1CCOCC1 (stereo not drawn)	Protein skinhead-1 (Caenorhabditis elegans)	inactive
Cc1cccc(-c2nc3c(c(SCC(=O)N4CCOCC4)n2)CCCC3)c1	Protein skinhead-1 (Caenorhabditis elegans)	inactive
O=c1c2cc3c(cc2[nH]c(=S)n1Cc1ccco1)OCO3	Protein skinhead-1 (Caenorhabditis elegans)	inactive
O=C(NCc1ccncc1)c1ccc(-c2ccc(F)c(F)c2)c2ccoc12	Protein skinhead-1 (Caenorhabditis elegans)	active
Cc1c(NC(=O)CSc2ccc3c(c2)OCCO3)c(=O)n(-c2ccccc2)n1C	Protein skinhead-1 (Caenorhabditis elegans)	inactive
Cc1cc(C)c2nc(C(F)(F)F)nc(N3CCN(C(=O)c4ccco4)CC3)c2c1	Protein skinhead-1 (Caenorhabditis elegans)	inactive
O=C(/C=C\Nc1cccc(F)c1)c1cccs1	Protein skinhead-1 (Caenorhabditis elegans)	active
Clc1ccc(-c2cn3cccnc3n2)cc1Cl	Protein skinhead-1 (Caenorhabditis elegans)	inactive
O=C(O)c1ccc2c(c1)[C@@H]1C=CC[C@@H]1[C@H](c1ccccn1)N2	Protein skinhead-1 (Caenorhabditis elegans)	inactive
CC/C(=C\c1ccc(Cl)cc1)c1ccncc1	Protein skinhead-1 (Caenorhabditis elegans)	active

---

# experimental-system: Heat shock factor protein 1 (Mus musculus, UniProt P38532)
# Sequence (P38532 whole entry): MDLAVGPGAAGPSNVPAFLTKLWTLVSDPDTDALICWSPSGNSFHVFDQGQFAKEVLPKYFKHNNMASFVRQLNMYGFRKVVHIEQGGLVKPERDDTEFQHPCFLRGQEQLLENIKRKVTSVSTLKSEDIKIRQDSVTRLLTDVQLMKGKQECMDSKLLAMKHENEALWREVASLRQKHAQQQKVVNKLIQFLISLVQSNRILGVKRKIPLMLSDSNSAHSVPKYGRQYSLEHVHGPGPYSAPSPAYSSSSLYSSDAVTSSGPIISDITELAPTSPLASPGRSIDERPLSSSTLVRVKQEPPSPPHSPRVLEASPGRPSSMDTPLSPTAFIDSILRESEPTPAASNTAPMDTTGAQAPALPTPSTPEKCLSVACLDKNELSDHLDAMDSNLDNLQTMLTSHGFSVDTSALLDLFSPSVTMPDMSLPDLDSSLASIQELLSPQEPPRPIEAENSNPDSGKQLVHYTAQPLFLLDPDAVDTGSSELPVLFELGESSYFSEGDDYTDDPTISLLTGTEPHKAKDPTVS
# measurement-description: enhancement of HSF1-driven luciferase signal – cell-based, NIH3T3, luminescence, dose retest, confirmation (AID 435004);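 also: stress induced by proteasome inhibitor MG132 added 30 min after compound; luciferase reporter driven by HSF1 response element in NIH3T3 cells; actives raise luminescence as potentiators of the MG132 stress response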
# Type: functional
Active and inactive are the calls of the source.
Outcomes: active, inactive

compound	group-label
CCOC(=O)c1ccc(NC(=O)CCS(=O)(=O)c2ccc(Br)s2)cc1	inactive
O=S(=O)(c1ccc(Cl)cc1)N1CCC2(CC1)OCCN2S(=O)(=O)c1cccs1	active
COc1ccc(CN(C)Cc2c(O)ccc3ccccc23)cc1	active
Cc1cccc(C)c1OCC(=O)NCc1nnc(SCC(=O)NC2CCCCC2C)n1C (stereo unspecified)	inactive
COC(=O)c1ccc(OC(=O)CCN2C(=O)C3CCCCC3C2=O)cc1 (stereo unspecified)	inactive
S=c1sc2c(Cl)ncnc2n1-c1ccccc1	active
CCC1Oc2ccc(C)cc2N(Cc2cccc(C)c2)C1=O (stereo unspecified)	inactive
Cc1cc(C)c(C(=O)/C=C/c2cccc3ccccc23)c(O)n1	active
Cc1cc2nc3c(=O)n(CCc4ccccc4)c(=O)[nH]c3nc2cc1N	inactive
S=C(c1cn(Cc2ccc(Br)cc2)c2ccccc12)N1CCOCC1	inactive
C=CCSC1=C(C#N)C(c2cccc(OC)c2)CC(=O)N1 (stereo unspecified)	inactive

---

Listed here: items and their measured IC50.
# experimental-system: UniProt:Q194T2
# Sequence (Q194T2 whole entry): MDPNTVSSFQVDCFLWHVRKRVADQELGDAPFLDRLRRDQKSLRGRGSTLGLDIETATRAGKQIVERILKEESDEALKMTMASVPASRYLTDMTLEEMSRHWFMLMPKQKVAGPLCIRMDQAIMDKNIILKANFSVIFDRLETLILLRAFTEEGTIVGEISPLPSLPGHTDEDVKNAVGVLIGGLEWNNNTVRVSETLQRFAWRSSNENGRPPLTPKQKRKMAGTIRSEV
# Assay type: functional, Influenza A virus (A/California/07/2009(H1N1))
The source made the active and inactive calls.

molecule	IC50
N#CC(c1ccccc1)c1ccc2c(C(F)(F)F)cc(C(F)(F)F)nc2n1 (configuration not stated)	21.3 µM (active)
CN(C)c1ccc(NC(=S)c2ccccn2)cc1	28.3 µM (active)
N#C/C(N=Nc1ccccc1O)=N\Nc1ccccc1O	10.9 µM (active)
CCOc1ccccc1C(=O)N/N=C/c1cccc2cccnc12	32.3 µM (active)
O=C(CNCCC1=CCCCC1)Nc1ccc(N2CCCCCC2)cc1	13.8 µM (active)
Clc1cc2cccnc2c2ncccc12	3.44 µM (active)
COc1ccc(N=NC2C(=O)N(c3ccccc3)N=C2C)cc1 (configuration not stated)	27.1 µM (active)
Brc1ccc(N/N=C(/N=Nc2nn[nH]n2)c2ccccc2)cc1	6 µM (active)
Cc1c(C)n(Cc2ccccc2)c2ccc(C(=O)OCCCN(C)C)cc12	43.7 µM (active)
Cc1ccc(C(=O)Nc2nc(-c3ccccn3)cs2)cc1S(=O)(=O)N1CCOCC1	7.81 µM (active)
C/C(=N\NC(=O)c1cc(C)nc2ccccc12)c1ccccn1	2.23 µM (active)
COc1ccc(CCNCc2cc(C)n(-c3ccc(OC)cc3)c2C)cc1	44.7 µM (active)
